# protocol_details: Pharmacokinetic property when administered intravenously in rat at 2 mg/kg
# Format: ADME, organism-based
# Set-up: dose 2 mg/kg, route intravenous
# recorded_conditions: in vivo, iv
Measured AUC accompanies every entry in the list below.
Report as a plain number; the unit ng·h/mL is understood.

Cc1nc(C(=O)c2oc3cccc(OCCCNCc4cccnc4)c3c2C)sc1C : 320
Cc1c(C(=O)c2nccn2C)oc2cccc(OCCCNCc3cccnc3)c12 : 530
Cc1ccc(C(=O)c2oc3cccc(OCCCNCc4cccnc4)c3c2C)nc1 : 440
C=CCn1c(C(=O)c2oc3cccc(OCCCNCc4cccnc4)c3c2C)nc2ccccc21 : 570
Cc1c(C(=O)c2nc3ccccc3n2C(C)C)oc2cccc(OCCCNCc3cccnc3)c12 : 810

[in] Identify measured AUC associated with `Cc1csc(C(=O)c2oc3cccc(OCCCNCc4cccnc4)c3c2C)n1`
[out] 470

[in] Identify measured AUC associated with `Cc1c(C(=O)c2ccccn2)oc2cccc(OCCCNCc3cccnc3)c12`
[out] 410

* * *

# target_or_test_system: Peptide N-myristoyltransferase (Candida albicans)
# protocol_details: In vitro inhibitory activity against Candida albicans Nmt (CaNmt) using substrate peptide GLTISKLFR-R-NH2 (0.5 uM) and myristoyl-CoA (0.5 uM)
Measured log10 IC50 accompanies every entry in the list below.
Please interpret these as log10 of IC50 where IC50 is in nM.

[in] Identify measured log10 IC50 associated with `Cc1c(C(=O)c2nc3ccccc3n2C(C)C)oc2cccc(OCCCNCc3cccnc3)c12`
[out] 0.11

[in] Identify measured log10 IC50 associated with `Cc1c(C(=O)c2nc3ccccc3n2C)oc2cccc(OCCCNCc3cccnc3)c12`
[out] -0.40

[in] Identify measured log10 IC50 associated with `Cc1c(C(=O)c2ncccc2C(F)(F)F)oc2cccc(OCCCNCc3cccnc3)c12`
[out] 1.63

[in] Identify measured log10 IC50 associated with `Cc1c(C(=O)c2ccco2)oc2cccc(OCCCNCc3cccnc3)c12`
[out] 3.15

[in] Identify measured log10 IC50 associated with `C=CCn1c(C(=O)c2oc3cccc(OCCCNCc4cccnc4)c3c2C)nc2ccccc21`
[out] -0.24

[in] Identify measured log10 IC50 associated with `Cc1csc(C(=O)c2oc3cccc(OCCCNCc4cccnc4)c3c2C)n1`
[out] 0.30

[in] Identify measured log10 IC50 associated with `Cc1nc(C(=O)c2oc3cccc(OCCCNCc4cccnc4)c3c2C)sc1C`
[out] -0.15

[in] Identify measured log10 IC50 associated with `Cc1c(C(=O)c2nccs2)oc2cccc(OCCCNCc3cccnc3)c12`
[out] 1.96

* * *

# target_or_test_system: Peptide N-myristoyltransferase (Homo sapiens, UniProt P30419+O60551)
# protocol_details: In vitro inhibitory activity against human Nmt (HsNmt) using 0.5 uM peptide GNAASAR-R-NH2 and 0.5 uM myristoyl-CoA
# Format: protein assay
measured_endpoint: IC50 (µM)
Report as a plain number; the unit µM is understood.

Reference set (3 entries):
Cc1c(C(=O)c2ccccn2)oc2cccc(OCCCNCc3cccnc3)c12 : 340
Cc1c(C(=O)c2ccco2)oc2cccc(OCCCNCc3cccnc3)c12 : 280
Cc1c(C(=O)c2nccs2)oc2cccc(OCCCNCc3cccnc3)c12 : 25

--- query ---
[in] Identify measured IC50 associated with `Cc1csc(C(=O)c2oc3cccc(OCCCNCc4cccnc4)c3c2C)n1`
[out] 130

Every entry's value here was drawn from ChEMBL document CHEMBL1136367.
